Data credit: paper PMC5540273

- Test system: DDR2
- assaySetup: concentration: 1 μM, replicates: in singlicate; n = 1;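 note: KINOMEscan kinase panel screen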
measurementName: %Inh

>>> print(df.to_string())
                                   molecule  measurementname  recordedresult
0  NS(=O)(=O)c1cccc(-c2ccc3ncc(N4CCOCC4)nc3c2)c1             %Inh             23%
1                        CCn1cnc2c(N)ncnc21             %Inh              0%
2                  CC(C)(C)n1cnc2c(N)ncnc21             %Inh              0%
3  Cc1nnc(-c2ccc3ncc(-c4ccc(S(C)=O)cc4)n3c2)o1 (stereo not drawn)             %Inh             24%
4  Fc1ccc(-c2nn3c(OCC(F)(F)F)cccc3c2-c2ccncc2)cc1             %Inh             81%
5      CN(C1=C(c2ccccc2)C(=O)NC1=O)c1ccccc1             %Inh              4%

---

- Tested on: HCK
- assaySetup: concentration: 1 μM, replicates: in singlicate; n = 1
measurementName: %Inh (%)

>>> print(df.to_string())
                                    compound  recordedresult
 0  COc1ccc(Nc2nccc(N3CCC(NC(=O)Nc4cccc(C(C)=O)c4)C3)n2)cc1 (centres unmarked)               0
 1  COc1cc2ncn(-c3cc(OCc4sccc4Cl)c(C(N)=O)s3)c2cc1OC               0
 2  Cc1ccc(NC(=O)c2ccnc(N3CCN(C)CC3)c2)cc1-c1ccc(C(=O)NCC2CC2)cc1               9
 3  COc1ccc(CNC(=O)NC2CCN(c3ccnc(Nc4ccc(OC)cc4)n3)C2)cc1 (centres unmarked)               0
 4  O=C(NCCNc1ccnc(Nc2ccc(F)cc2)n1)Nc1ccccc1F               0
 5  COc1cc(Nc2nccc(N3CCC(NC(=O)c4cccc(NC(C)=O)c4)C3)n2)cc(OC)c1OC (centres unmarked)               0
 6  NCC(NC(=O)c1cc(-c2cn[nH]c2)c(-c2ccnc3[nH]ccc23)s1)c1ccccc1.O=C(O)C(F)(F)F.O=C(O)C(F)(F)F (centres unmarked)               0
 7  O=C(NOCC1CC1)c1ccc(F)c(F)c1Nc1ccc(I)cc1Cl               0
 8  Nc1nc(-c2ccc3c(N)n[nH]c3c2)cc(N2CCCC2)n1               0
 9  O=c1cc(N2CCOCC2)nc2n(Cc3cccc(Cl)c3Cl)c(C3CC3)nn12               0
10                  CC(C)(C)n1cnc2c(N)ncnc21               0
11  COc1ccc(S(=O)(=O)NC2CCN(c3cc(C)nc(Nc4cccc(C#N)c4)n3)CC2)cc1.O=C(O)C(F)(F)F               0
12  O=C(c1ccc(-c2cc(-c3c[nH]nc3-c3ccccn3)ccn2)cc1)N1CCOCC1              36
13   Cc1cccc(Cn2ccn3c(=O)cc(N4CCOCC4)nc23)c1               0
14  N#Cc1c(N2CCOCC2)sc(-c2ccn[nH]2)c1-c1ccc(Cl)cc1              28
15      CN(C1=C(c2ccccc2)C(=O)NC1=O)c1ccccc1               0
16  NS(=O)(=O)CCc1cccc(Nc2nccc(-c3c(-c4cccc(NC(=O)c5c(F)cccc5F)c4)nn4ccccc34)n2)c1            98.9

---

- System: ERBB4
- assaySetup: concentration: 1 μM, replicates: in singlicate; n = 1
measurementName: %Inh (%)

>>> df
                          chemicalstructure  targetsystem  readoutunits  recordedresult
0  Nc1nccc(-c2c(-c3ccc(F)cc3)ncn2C2CCN(CC(F)(F)F)CC2)n1         ERBB4             %              34
1  COC(=O)Nc1nc2cc(Oc3ccc(NC(=O)Nc4cc(F)ccc4F)cc3)ccc2[nH]1.Cl         ERBB4             %              27
2  Cn1ccc2ncnc(Oc3ccc(NC(=O)Nc4ccncc4)c(Cl)c3)c21         ERBB4             %               0
3  COc1cc2ncn(-c3cc(OCc4sccc4Cl)c(C(N)=O)s3)c2cc1OC         ERBB4             %              31
4  N#Cc1c(N2CCOCC2)sc(-c2ccn[nH]2)c1-c1ccc(Cl)cc1         ERBB4             %              11
5  CC(C)Oc1ccc2c(-c3ccnc(Nc4ccc(N5CCN(C)CC5)cc4)n3)cnn2n1         ERBB4             %              39
6  COc1cc2c(cc1OC[C@@H](O)CO)ncc1c3ccc(C#N)cc3[nH]c21         ERBB4             %               0
7   Cc1cccc(Cn2ccn3c(=O)cc(N4CCOCC4)nc23)c1         ERBB4             %              27
8  O=c1cc(N2CCOCC2)nc2n(Cc3cccc(C(F)(F)F)c3)ccn12         ERBB4             %               5

---

- Test system: LIMK1
- assaySetup: concentration: 1 μM, replicates: in singlicate; n = 1
measurementName: %Inh (%)

>>> print(df.to_string())
                                   compound  targetsystem  measurementname  readoutunits  recordedresult
0  Cc1c2ccc(N(C)c3ccnc(Nc4cccc(S(N)(=O)=O)c4)n3)cc2nn1Cc1ccccc1.Cl.Cl         LIMK1             %Inh             %              89
1  O=C(Nc1n[nH]c2cc(-c3cccc(F)c3)ccc12)C1CC1         LIMK1             %Inh             %               0
2  O=C1Cc2cc(Nc3nc(NCc4cccc(S(=O)(=O)C(F)(F)F)c4)ncc3C(F)(F)F)ccc2N1         LIMK1             %Inh             %               1
3  C[C@@H](Oc1cc(-n2cnc3ccc(NC(=O)NC(C)(C)C)cc32)sc1C(N)=O)c1ccccc1Cl         LIMK1             %Inh             %               0
4                  CC(C)(C)n1cnc2c(N)ncnc21         LIMK1             %Inh             %               0
5  Cn1ccc2ncnc(Oc3ccc(NC(=O)Nc4ccncc4)c(Cl)c3)c21         LIMK1             %Inh             %               0
6  O=C(NOCC1CC1)c1ccc(F)c(F)c1Nc1ccc(I)cc1Cl         LIMK1             %Inh             %               0
7      CSc1ccc(-c2cc3ncnc(SCC(=O)O)c3s2)cc1         LIMK1             %Inh             %               0
8  Cc1nnc(-c2ccc3ncc(-c4ccc(S(C)=O)cc4)n3c2)o1 (stereo not drawn)         LIMK1             %Inh             %               0

---

Each entry below carries its reported %Inh.
- System: ABL1-nonphosphorylated
- assaySetup: concentration: 1 μM, replicates: in singlicate; n = 1
measurementName: %Inh

>>> print(df.to_string())
                                    molecule  recordedresult
 0  O=C(Nc1cccc(-c2nn3ncccc3c2-c2ccnc(Nc3cccc(C(F)(F)F)c3)n2)c1)c1c(F)cccc1F             18%
 1  CC(=O)Nc1ccc(COc2ccc(Nc3ccnc4cc(-c5ccccn5)ccc34)cc2)cc1.Cl             35%
 2  Cl.Oc1cccc(Nc2ccnc3cc(-c4ccncc4)ccc23)c1            100%
 3  COCCNC(=O)c1ccc(-c2cc(C(=O)NC3CC3)cc(F)c2C)cc1             43%
 4  NS(=O)(=O)c1cccc(-c2ccc3ncc(N4CCOCC4)nc3c2)c1              1%
 5                        CCn1cnc2c(N)ncnc21             33%
 6  N#Cc1c(N2CCOCC2)sc(-c2ccn[nH]2)c1-c1ccc(Cl)cc1             42%
 7  Cc1nnc(-c2ccc3ncc(-c4ccc(S(C)=O)cc4)n3c2)o1 (stereo not shown)             44%
 8  Cc1nnc(-c2ccc(C)c(-c3ccc(C(=O)Nc4ccc(NS(C)(=O)=O)cc4)cc3)c2)o1              0%
 9  COc1cc2c(cc1OC[C@@H](O)CO)ncc1c3ccc(C#N)cc3[nH]c21             49%
10  c1ccc(-c2cc(-c3c[nH]nc3-c3ccccn3)ccn2)cc1              0%
11      c1ccc(-c2n[nH]cc2-c2ccnc3ccccc23)nc1             14%
12  O=C(NOCC1CC1)c1ccc(F)c(F)c1Nc1ccc(I)cc1Cl              0%
13  COc1cc2c(cc1OCCN1CCN(C)CC1)ncc1c3ccc(C#N)cc3[nH]c21             82%
14  N#Cc1ccc(-c2cc(-c3c[nH]nc3-c3ccccn3)ccn2)cc1              7%
15  Cc1c(Cn2c(C)nn3c(=O)cc(N4CCOC(C)C4)nc23)cccc1C(F)(F)F (stereo not shown)              0%
16  Cc1ccc(C(=O)NCC(N)=O)cc1-n1c(C)cc(OCc2ccc(F)cc2F)c(Br)c1=O             57%
17  NS(=O)(=O)c1cccc(-c2ccc3nccc(-c4cccc(S(N)(=O)=O)c4)c3c2)c1             36%
18  CN1c2ccc(CNc3ccc(F)cc3)cc2-c2c(cnn2C)S1(=O)=O             21%
